Source: patent US20250332173A1

System: SMN2 mRNA
protocol: RT-qPCR splicing assay, SMN2 canonical junction (CJ) mRNA
Format: cell-based, human
statedConditions: Homo sapiens; canonical junction qPCR panel, Table 5; read-out: SMN2 (decrease in CJ mRNA levels, IC50)
pIC50: −log10 of the molar value.
Readings of pIC50 for the listed molecules

>  <molecule>
Cc1cn2nc(-c3ccc4c(=O)n([C@@H]5CCNC6(CCC6)C5)ncc4n3)cc(C)c2n1

>  <target>
SMN2 mRNA

>  <pIC50>
> 7.00

$$$$
>  <molecule>
Cn1cc2cc(-c3ccc4c(=O)n(C5CCNCC5)ccc4n3)c(O)c(C#N)c2n1

>  <target>
SMN2 mRNA

>  <pIC50>
> 7.00

$$$$
>  <molecule>
Cc1c(O)c(-c2ccc3c(=O)n([C@H]4CCNC4)ccc3n2)cc2cn(C)nc12

>  <target>
SMN2 mRNA

>  <pIC50>
> 7.00

$$$$
>  <molecule>
Cc1c(O)c(-c2ncc3c(=O)n([C@@H]4CCN[C@H](C)C4)ccc3n2)cc2cn(C)nc12

>  <target>
SMN2 mRNA

>  <pIC50>
> 7.00

$$$$
>  <molecule>
Cn1cc2cc(-c3ccc4c(=O)n([C@@H]5CCNC5)ccc4n3)c(O)c(F)c2n1

>  <target>
SMN2 mRNA

>  <pIC50>
> 7.00

$$$$
>  <molecule>
Cc1cn2nc(-c3ccc4c(=O)n(C5C[C@@H](C)N[C@H](C)C5)ncc4n3)cc(C)c2n1 (stereo in doubt)

>  <target>
SMN2 mRNA

>  <pIC50>
> 7.00

$$$$
>  <molecule>
Cn1cc2cc(-n3cnc4ccc(C5=CCNCC5)cc4c3=O)ccc2n1

>  <target>
SMN2 mRNA

>  <pIC50>
< 5.00

$$$$
>  <molecule>
Cn1cc2cc(-c3ccc4c(=O)n(C5CCNCC5)ccc4n3)cc(F)c2n1

>  <target>
SMN2 mRNA

>  <pIC50>
> 7.00

$$$$
>  <molecule>
Cc1cn2nc(-c3ccc4c(=O)n([C@H]5CCN[C@@H](C6CC6)C5)ncc4n3)cc(C)c2n1

>  <target>
SMN2 mRNA

>  <pIC50>
6.00 to 7.00

$$$$
>  <molecule>
Cn1cc2nc(-c3ccc4c(=O)n(C5CCNCC5)ccc4n3)c(O)cc2n1

>  <target>
SMN2 mRNA

>  <pIC50>
> 7.00

$$$$
>  <molecule>
CN1CCN(c2ccc3ncn(-c4ccc5nn(C)cc5c4)c(=O)c3c2)CC1

>  <target>
SMN2 mRNA

>  <pIC50>
< 5.00

$$$$
>  <molecule>
Cc1c(O)c(-c2ccc3c(=O)n([C@H]4CCN[C@@H](C)C4)ccc3n2)cc2cn(C)nc12

>  <target>
SMN2 mRNA

>  <pIC50>
> 7.00

$$$$
>  <molecule>
Cc1cn2cc(-c3ncc4c(=O)n([C@H]5CCN[C@@H](C)C5)ccc4n3)cc(F)c2n1

>  <target>
SMN2 mRNA

>  <pIC50>
> 7.00

$$$$
